molecular target: Nuclear receptor subfamily 1 group I member 3 (Homo sapiens) (UniProt Q14994); experiment: qHTS assay to identify small molecule agonists of the constitutive androstane receptor (CAR) signaling pathway (AID 1224839); details: HepG2 hCAR CYP2B6-luciferase, agonist mode, 24 h; series mostly up to 92.4 µM; further: nearly all actives have a fitted effect of over 15% in size;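 on activation: HepG2 cells stably carrying human CAR and a CYP2B6 luciferase reporter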
Sequence (Q14994 whole entry, looked up): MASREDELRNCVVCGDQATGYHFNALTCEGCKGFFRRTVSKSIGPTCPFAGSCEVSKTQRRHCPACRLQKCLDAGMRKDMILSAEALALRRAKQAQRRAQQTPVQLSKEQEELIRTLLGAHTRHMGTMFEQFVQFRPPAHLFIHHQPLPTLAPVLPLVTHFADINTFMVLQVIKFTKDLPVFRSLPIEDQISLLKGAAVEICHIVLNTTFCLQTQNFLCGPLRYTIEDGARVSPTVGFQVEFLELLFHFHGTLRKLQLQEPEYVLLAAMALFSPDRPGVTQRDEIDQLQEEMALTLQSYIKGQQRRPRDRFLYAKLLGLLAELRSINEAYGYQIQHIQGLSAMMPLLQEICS
Inconclusive results are not listed. Active and inactive are the calls of the source. The call rests on the fitted dose curve; in most records, active means well fitted activation curve with a large enough effect in the repeat runs; inconclusive means weak or mixed curves; inactive means no such curve, though single readings can be large or run the other way.
Classes used: active, inactive

1. N#Cc1ccccc1N :: inactive
2. CCCCCCCCCCCCBr :: inactive
3. BrCBr :: inactive
4. Nc1ccccc1C(=O)Oc1ccc2ccccc2c1 :: active
5. COCC(=O)N(c1c(C)cccc1C)[C@H](C)C(=O)OC :: inactive
6. O=c1c(C2CC(c3ccc(-c4ccc(Br)cc4)cc3)Cc3ccccc32)c(O)sc2ccccc12 (stereo not drawn) :: inactive
7. CC(C)[C@H](C(=O)OC(C#N)c1cccc(Oc2ccccc2)c1)c1ccc(OC(F)F)cc1 (stereo partly drawn) :: inactive
8. CCCCCCCCCBr :: inactive
9. CCc1nn(C)c(C(=O)NCc2ccc(C(C)(C)C)cc2)c1Cl :: inactive
10. CC(Cc1ccc(C(C)(C)C)cc1)CN1C[C@@H](C)O[C@@H](C)C1 (stereo partly drawn) :: inactive
11. COc1cc(N)c(Cl)cc1C(=O)NC1CN2CCC1CC2 (stereo not drawn) :: inactive
12. ClC(Cl)=C(Cl)Cl :: inactive
13. Oc1ccc2ccc3cccc4ccc1c2c34 :: active
